Hello, the source for this data is PubChem BioAssay (NCI), in case you need it.

- Tested on: PC-3 prostate
- procedure-text: NCI-60 one-dose screen, 48 h
- details: 10 µM unless noted
Compounds without any hit were thinned out: in the full panel of roughly 83,000, 20% have a hit. The source made the active and inactive calls. The calls were made as follows: active = growth percent below 10; inactive = the rest.
# output must be one of t = active, f = inactive

Take a look at these entries with their results.
{"columns": ["molecule", "label-value"],
 "data": [
  ["COc1ccc(-c2nc3sc4c(c3c(=O)[nH]2)CCCC4)c2ccccc12", "f"],
  ["O=c1ccn(C2OC(F)(CO)C(O)C2F)c(=O)[nH]1 (stereo not given)", "f"],
  ["O=C(Nc1ccccc1Cl)OCCN1CCOCC1", "f"]
]}

Which outcome was entered for the molecule Clc1ccc(/C=N\N=c2\scc(-c3ccc(Cl)cc3)n2/N=C/c2ccc(Cl)cc2)cc1 in this test? f

Try this molecule too: COC(=O)c1ccc(CSc2nnc(-c3ccncc3)o2)cc1 f

Try this molecule too: NC(N)=N/N=C/c1ccc(Br)cc1 f
